- assayed.system: human μ opiate receptor (Homo sapiens)
- Construct: purchased PerkinElmer Life Sciences, Zaventem, Belgium RB-HOM; host or cells: CHO-K1 cells (membrane preparation)
- Sequence (P35372 whole entry): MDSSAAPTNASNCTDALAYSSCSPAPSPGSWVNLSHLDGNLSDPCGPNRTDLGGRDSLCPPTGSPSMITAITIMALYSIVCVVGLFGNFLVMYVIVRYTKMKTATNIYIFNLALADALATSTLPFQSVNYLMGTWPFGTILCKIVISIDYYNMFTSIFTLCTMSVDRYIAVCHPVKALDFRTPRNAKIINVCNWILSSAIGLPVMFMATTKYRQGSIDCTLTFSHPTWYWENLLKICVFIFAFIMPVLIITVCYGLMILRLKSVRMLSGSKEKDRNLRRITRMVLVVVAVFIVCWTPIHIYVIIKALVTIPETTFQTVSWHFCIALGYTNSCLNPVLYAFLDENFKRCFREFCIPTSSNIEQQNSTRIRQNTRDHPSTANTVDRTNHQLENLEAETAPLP
- test.description: Affinity for the human μ opiate receptor ([3H]-naloxone displacement, CHO-K1 receptor membrane preparation, SPA)
- Assay type: binding
- details: test concentration of 1 μM; read-out: μ (binding on the μ opioid receptor, % inhibition)
Label no if inhibition at 1 µM falls below 90%; label yes in every other case.

>>> qualitative_label("CN(C)C(c1cccs1)C1CCC(CCNC(=O)COCCN(C)S(=O)(=O)c2ccc(Cl)cc2Cl)CC1 (stereo not shown)")
"yes"
>>> qualitative_label("COc1ccc(S(=O)(=O)N2CCCC2COCC(=O)NC2CCC(C(c3cccs3)N(C)C)CC2)cc1 (stereo not shown)")
"no"
>>> qualitative_label("COc1cc(C)c(S(=O)(=O)N2CCN(CCOCC(=O)NC3CCC(C(c4ccccc4)N(C)C)CC3)CC2)c(C)c1C (stereo not shown)")
"yes"
>>> qualitative_label("COc1cc(C)c(S(=O)(=O)N(C)CCOCC(=O)NCC2CCC(C(c3ccccc3)N(C)C)CC2)c(C)c1C (stereo not shown)")
"yes"

====

Each entry below carries its recorded B1R Ant. r [10 μM] % Inhibition.
- assayed.system: bradykinin 1 receptor (B1R) of the rat (Rattus norvegicus, UniProt P97583)
- Construct: expressed in transfected cells; host or cells: CHO K1 cells
- Sequence (P97583 1-337): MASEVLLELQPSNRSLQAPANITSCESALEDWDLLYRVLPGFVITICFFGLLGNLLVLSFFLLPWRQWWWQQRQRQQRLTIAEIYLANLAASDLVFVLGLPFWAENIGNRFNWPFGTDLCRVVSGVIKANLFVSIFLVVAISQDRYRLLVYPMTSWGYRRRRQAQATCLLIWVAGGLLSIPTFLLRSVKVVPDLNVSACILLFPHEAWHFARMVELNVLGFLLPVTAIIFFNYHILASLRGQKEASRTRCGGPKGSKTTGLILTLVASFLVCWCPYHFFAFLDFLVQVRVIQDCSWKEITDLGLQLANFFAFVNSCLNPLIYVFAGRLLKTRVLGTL
- test.description: Functional investigation on the rat bradykinin 1 receptor (B1R), Ca2+ FLIPR assay in CHO K1 rB1R cells
- Assay type: cell-based
- details: B1R antagonism rat; test substance 10 μM; Ca2+ FLIPR, CHO K1 rB1R cells
measured.endpoint: B1R Ant. r [10 μM] % Inhibition (%)

>>> result("COc1cc(C)c(S(=O)(=O)N2CCCC(OCC(=O)NCCC3CCC(C(c4ccc(Cl)cc4)N(C)C)CC3)C2)c(C)c1C (centres unmarked) [Example 485]")
6
>>> result("COc1cc(C)c(S(=O)(=O)N2CCC(CCOCC(=O)NCCC3CCC(C(c4ccc(Cl)cc4)N(C)C)CC3)CC2)c(C)c1C (centres unmarked) [Example 561]")
"−12"
>>> result("COc1cc(C)c(S(=O)(=O)N2CCC(OCC(=O)NCC3CCC(C(c4ccc(F)cc4)N(C)C)CC3)C2)c(C)c1 (centres unmarked) [Example 541]")
104
>>> result("CN(C)C(c1cccc(F)c1)C1CCC(NC(=O)COCCN2CCN(S(=O)(=O)c3ccccc3)CC2)CC1 (centres unmarked) [Example 364]")
"−9"
>>> result("COc1cc(C)c(S(=O)(=O)N2CCC(CCOCC(=O)NCC3CCC(C(c4cccc(F)c4)N(C)C)CC3)CC2)c(C)c1C (centres unmarked) [Example 319]")
11
>>> result("CN(C)C(c1cccc(F)c1)C1CCC(NC(=O)COC2CCN(S(=O)(=O)c3ccccc3)CC2)CC1 (centres unmarked) [Example 335]")
2
>>> result("CN(C)C(c1ccc(F)cc1)C1CCC(NC(=O)COC2CCN(S(=O)(=O)c3ccccc3)C2)CC1 (centres unmarked) [Example 463]")
17
>>> result("COc1ccc(S(=O)(=O)N(C)CCOCC(=O)NC2CCC(C(c3cccc(F)c3)N(C)C)CC2)cc1OC (centres unmarked) [Example 401]")
1
>>> result("CN(C)C(c1ccc(F)cc1)C1CCC(CCNC(=O)COCCN(C)S(=O)(=O)c2c(Cl)cccc2Cl)CC1 (centres unmarked) [Example 285]")
75
>>> result("CN(C)C(CCc1ccccc1)C1CCC(CNC(=O)COCCN(C)S(=O)(=O)c2ccc(Cl)cc2Cl)CC1 (centres unmarked) [Example 513]")
40
>>> result("CN(C)C(c1ccc(F)cc1)C1CCC(CCNC(=O)COCC2CCCCN2S(=O)(=O)c2ccc(Cl)c(Cl)c2)CC1 (centres unmarked) [Example 337]")
"−23"
>>> result("COc1cc(C)c(S(=O)(=O)N(C)CCOCC(=O)NCC2CCC(C(c3ccc(Cl)cc3)N(C)C)CC2)c(C)c1C (centres unmarked) [Example 298]")
14
>>> result("COc1ccc(S(=O)(=O)N2CCCCC2COCC(=O)NCC2CCC(C(c3ccc(Cl)cc3)N(C)C)CC2)cc1 (centres unmarked) [Example 321]")
77
>>> result("COc1ccc(S(=O)(=O)N2CCCCC2CCOCC(=O)NC2CCC(C(c3ccc(F)cc3)N(C)C)CC2)cc1 (centres unmarked) [Example 212]")
41

These measurements were taken from patent US8106055B2.
